- Tested on: TYK2(JH2domain-pseudokinase);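 further: KINOMEscan kinase panel screen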
- condition summary: concentration: 1 μM, replicates: in singlicate; n = 1
experimental endpoint: %Inh (%)
Return type: number; implicit unit %.

- compound: "COc1ccc(-c2coc3ccc(-c4nnc(C)o4)cc23)cc1"
  assay system: "TYK2(JH2domain-pseudokinase)"
  %Inh, %: 0
- compound: "CC(=O)c1c(C)c2cnc(Nc3ccc(N4CCNCC4)cn3)nc2n(C2CCCC2)c1=O"
  assay system: "TYK2(JH2domain-pseudokinase)"
  %Inh, %: 0
- compound: "Cc1ccc(-c2nc(Nc3ccncc3)c3ccccc3n2)s1"
  assay system: "TYK2(JH2domain-pseudokinase)"
  %Inh, %: 76
- compound: "Cc1nccc(-c2c(-c3ccc(F)cc3)ncn2CCCN2CCOCC2)n1.Cl"
  assay system: "TYK2(JH2domain-pseudokinase)"
  %Inh, %: 28

%Inh of COc1ccc(Nc2nccc(NCCNC(=O)Nc3cc(C)ccc3C)n2)cc1 on TYK2(JH2domain-pseudokinase)? 0

%Inh of CNCc1ccc2nc(NC(=O)c3ccc(C(C)(C)C)cc3)cn2c1 on TYK2(JH2domain-pseudokinase)? 24

%Inh of CC(C)c1ccc(O)cc1Nc1ccnc2ccc(C(F)(F)F)cc12 on TYK2(JH2domain-pseudokinase)? 0

%Inh of COc1ccc2cc(-c3nc(-c4ccccc4C(C)C)[nH]c3-c3ccncc3)ccc2c1 on TYK2(JH2domain-pseudokinase)? 27

%Inh of Cn1cnc2c(N)ncnc21 on TYK2(JH2domain-pseudokinase)? 0

%Inh of COc1cccc(C2=C(Nc3cc(Cl)c(O)c(Cl)c3)C(=O)NC2=O)c1 on TYK2(JH2domain-pseudokinase)? 39

%Inh of Cc1ccc(NC(=O)Nc2ccc(Cl)c(C(F)(F)F)c2)cc1-c1ccc(C(=O)Nc2ccncc2)cc1 on TYK2(JH2domain-pseudokinase)? 0

%Inh of COC(=O)C(NC(=O)NC1CCN(c2ccnc(Nc3ccc(F)cc3)n2)C1)c1ccccc1 (centres unmarked) on TYK2(JH2domain-pseudokinase)? 22

%Inh of Cc1ccc(NC(=O)Nc2ccc(Cl)cc2)cc1-c1ccc(C(=O)Nc2ccncc2)cc1 on TYK2(JH2domain-pseudokinase)? 13

%Inh of COC(=O)c1cccc(NC(=O)NC2CCN(c3ccnc(Nc4ccc(OC)cc4)n3)C2)c1 (centres unmarked) on TYK2(JH2domain-pseudokinase)? 51

%Inh of O=C1NC(=O)C(c2ccc(Cl)cc2)=C1Nc1cccc(Cl)c1 on TYK2(JH2domain-pseudokinase)? 0

%Inh of CNc1nc(-c2ccc3c(N)n[nH]c3c2)cc(N2C[C@@H](C(=O)NC3CCCCC3)OC[C@H]2C)n1 on TYK2(JH2domain-pseudokinase)? 12

%Inh of Cn1cncc1C(=O)NC1CCN(c2ccnc(Nc3ccc(F)cc3)n2)C1 (centres unmarked) on TYK2(JH2domain-pseudokinase)? 20
